# PROTOCOL_TEXT: yeast display, Sf9 membrane polyspecificity reagent, FACS + sequencing; frameworks hold sequencing errors
QUANTITY_NAME: polyreactivity (PSR sort gate)

In the examples that follow, each entry is paired with its recorded polyreactivity (PSR sort gate).
QVQLVESGGGLVQAGGSLRLSCAASGYTFRPYAMGSYIQAPGKERELVAAISSTGGRTYYADSVKGRFTISRDIAKNTVYVQMNSLKPEYTAVYYCAVLKVYRSSFDYCGQGTQVTVSS; high polyreactivity
QVQLVESGGGLVQAGGSLRLSCAASGSTFEHYAMGWYRQAPGKERELVAAITRRGGSTYYADSVKGRFTISSDNAKNTVYLQMNSLKPEDTAVYYCYTVLRYSYYLPGYDYWGQGTQVTVSS; high polyreactivity
HAQLQESGGCLVQAGGSLRPSCAASGSIFRVSGMGWYRRAPGKERELVASIGFGSITYYADRVKGRFTISRDNAINTVYLQMNSLKPEDTAVYYCAVQVQDESWLDYWGQGTQVTVSC; low polyreactivity
QVQLVESGGGLVQAGGSLRLSCAASGRIFWQNAMGWYRQAPGKERELVAAISSRGGTTYYADSVKGRFTISRDNAKNTVYLQMNSLKPEDTAVYYCNAALLLRYRGFFTVAAYDYWGLGTQVTVSS; low polyreactivity

// query Find the recorded polyreactivity (PSR sort gate) belonging to QVQLVESGGGLVQAGGSLRLSCAASGSTFYVNDMGWYRQAPGKERELVAAIDWTGGTTYYADSVKGRFTISRDNAKNTVYLQMNSLKPEDTAVYYCAVDDSTVDYDYWGQGTQVTVSS and report it.
// result low polyreactivity

###

# PROTOCOL_TEXT: yeast display, Sf9 membrane polyspecificity reagent, FACS + sequencing; frameworks hold sequencing errors
QUANTITY_NAME: polyreactivity (PSR sort gate)

Look over these answered cases.
QVQLVESGGGLVQAGGSLRLSCAASGSIFRRYAMGWYRQAPGKEREFVAAITGSGGRTYYADSVKGRFTISRDNAKNTVYLQMNSLKPEDTAVYYCAARRRDRVTYYYWGQGTQVTVSS; high polyreactivity
QVQLVESGGGLVQAGGSLRLSCAASVSTFVRYAMGWYRPAPGKDRELVAAIDGGGTTKYADSVKGRFTISRDNAKNTVYLQMNSLKTEDTAVYYCAADQVWGYDSWGQGTQVTVSS; low polyreactivity
QVQLVESGGGLVQAGGSLRLSCAASGRICPKKGMGWYRQAPWKERELVAAITSGTSTYYADSVKGRFTISRDNAKNTVYLQMNSLKPEDTAVYYCNAVHARYRCQGDYWGQGTQVTVSS; low polyreactivity
QVQLVESGGGFVQAGGRLRLSCAASGRIFWMNAMGWYRQAPGKETEFVASITYGSDSTYYADSVKGRFTISRDNAKNTVYLQMNSLKPEDTAVYYCNREGWHYGPYGYWGQGTQVTVSS; low polyreactivity

// query Which polyreactivity (PSR sort gate) value is on record for QVQLVESGGGLVQAGGSLRLTCAASGRTFRRNAMGWYRPAPAKERELVAAITSGGGTYYADSVKGRFTISRDNAKNTVYLQMNSLKPEDTAVYYCNKKTSAGRVDYWGQGTQVTVSS ?
// result high polyreactivity

###

# PROTOCOL_TEXT: yeast display, Sf9 membrane polyspecificity reagent, FACS + sequencing; frameworks hold sequencing errors
QUANTITY_NAME: polyreactivity (PSR sort gate)

QVQLVESGGGLVQAGGSLRLSCAASGSIFRPNTMGWYRQAPGKERELVAAIRAGGRTYYADSVKGRFTISRDNAKNTVYLQMNSLKPEDTAVYYCNAVPASASTWRGQVGYDYWGQGTQVTVSS; high polyreactivity
QVQLVESGGGLVQAGGSLRLSCAASGRISFRYAMGWYRQAPGKERELVAAINRGGITNYADSVKGRFTISRDNAKNTVYLQMNSLKTEDTAVYYCAARYASPRYKSKMEYWGQGTQVTVSS; high polyreactivity

###

# PROTOCOL_TEXT: yeast display, Sf9 membrane polyspecificity reagent, FACS + sequencing; frameworks hold sequencing errors
QUANTITY_NAME: polyreactivity (PSR sort gate)

QDQLVESGGGLVQAGGSLRLSSAASGSIFRGYAMGWYRQAPGKERELVAAITFSGGSTYADSVKGRFTISRDNAKITVYLQMNSLKPEDTAVYYCAAKRTGHNWFTVYPYYSWGQGTQVTVSS; low polyreactivity
QVQLVESGGGLVQAGGSRRLICAASGRIYYYMGWYRQEPGQERELVAASTSSGVSTYYADSVKGRFTISRDNAKNTVDLQMNSLKPEDTAVYYCAAERVYIFWFTHEIFKYWGQGTQVTVSS; high polyreactivity
QVQLVESGGGLVQAGGSLRLSCAASGRIFTEYVMGWYRQAPGKERELVAAAITRGGSTNYADSVKGRFTISRDNAKNTVYLQMNSLKPEDTAVYYCNKDDWPVSRQLYTGKYDSWGQGTQVTVSS; low polyreactivity
QVQLVESGGGLDQAGGSLRLSCAASGGTFSNYAMGWYRQATGKERELVAAISESGGSTYYADSVKGRFTISRDNAKNTVYLQMNSLKPEDTAVYYCAVGTRFYVPRRFDYWGQGSQVTVSS; high polyreactivity
QVQLVESGGGLVQAGGSLRLSCAASGSIFYRYVMGWYRQAPGKERELVAVITGSGGNTYYADSVKGRFTISRDNAKNTVYLQMNSLKPEDTAVYYCAARYYTSQYGRHSRYPSEYWGQGTQVTVSS; high polyreactivity
QVQLVESRGGLVQAGGSLRLSCAASGRTLTAYAMGWYRQAPGKERELVDDISFGGGTTYYADSVKGRFTISSDNAKNTVYLQMNSLKPEDTAVYYCAAANYVDIWDFYWFDDYWGQGTQVTVSS; high polyreactivity
QVQLVESGGGLVQAGGSLRLSCAASGFNFGGNAMGWYRQAPGKERELVAAISGSGGSTYYADSVKGRFTISRDNAKNTVYLQMNSLKPEDTAVYYCAVKFPPRKSYGYYYWGQGTQVTVSS; high polyreactivity
QVQLVESGGGLVQAGGSLRLSCAASGRTFAFYAMGWYRQAPGKERELVASIRGGGGTNYADSVKGRFTISRDNAKNTVYLQMNSLKTEDTAVYYCAARGYGYRGYYYWGQGTQVTVSS; high polyreactivity
QVQLVESGGGLVQAGSSLRLSCAASGGTFYINTKGWYRKAPGKERELVATITIVVSTKYADSVKGRFTISRDNAKNTVYLQMNSLKPEDTAVYYCAKDDVYRDSYLVFDGEMDYWGQGTQVTVSS; low polyreactivity
QVQLVESGGGLVQAGGSLRLSCAASGSIFIRYAMGWYRQAPGKERELVAAITRSGGSTYYADSVKGRFTISRDNAKNTVYLQMNSLKPEDTAVYYCNVLLRRNGYFARGDYWGQGTQVTVSS; high polyreactivity

Here are 5 sequences. What values of polyreactivity (PSR sort gate) were reported for them?
1. QVQLVESGGGLVQAGGSLRLSCAASGRTFYYNTMGWYRQAPGKERELVATISRIGGSTYYADSVKGRFTISRDNAKNTVYLQMNSLKPEDTAVYYCAKGRSLNGRPPVVYWQLFYYWGQGTQVTVSS
2. QVQLVESGGGLVQAGGSLRLSCAASGIIFKIYAMGWYRQAPGKERELVAAISKRGASTYYADSVKGRFTISRDNAKNTVYLQMNSLKPEDTAVYYCAAYRQGSAYDYWGQGTQVTVSS
3. QVQLVESGGGLDQAGGSLRLSCAASGFTSGYNVLGWYRQAPGTARELVAAISWRGTSTYYADSVKGRFTISRDNAKNTVYLQMNSLKPEDTAVYYCAARQRWYWRGYDYWGQGTQVTVSS
4. QVQLVESGGGLVQAGGSLRLSCAASGSTFEANAMGWYRQAPGKERELVAVITWTGGSTYYADSVKGRFTISRDNAKNTVYLQMNSLKPEDTAVYYCAADGVVPCRFFWPAHEYDYWGQGTQVTVSS
5. QVQLVESGGGLVQAGGSLRLSCAASGRIFGWYAMGWYRQAPGKERELVAAISSAGRTYYADSVKGRFTISRDNAKNTDYLQMNSLKPEDTAVYYCAAEIARSFYRYTYYYWGQGTQVTVSS

// result
1: high polyreactivity; 2: high polyreactivity; 3: high polyreactivity; 4: low polyreactivity; 5: high polyreactivity

Please look at the items below and tell me polyreactivity (PSR sort gate) for each one, in order.
1. QVQLVESGGGLVQAGGSLRLSCAASGSTFPRYAMGWYRPAPGKERELVARISNSGASTYYADSVKGRFTISRDNAKNTVYLQMNSLKPEDTAVYYCNARRYSRPSGFKHYHYAESDYWGQGTQVTVSS
2. QVQLVESGGVLVQAGGSLRLSCAASGRTFIFYAMGWYRQAPRKERELVAAITYSGTSTYYADSVKGRFTISRDNAKNTVYLQMNSLKPEDTAVYYCAKDGQRDANYYWGQGTQVTVSS
3. QVQLVESGGGLVQAGGSLRLSCAASGSTFVFYVMVWYRQAPGKERQLVAAITGSTTSTYYAVSVKGRFTISRDNAKNTVYLQMNSLKPEDTAVYYCAAEVLRGRGFGYWGQGTQVCVSS
4. QVQLVESGGGLVQAGGRLRLSCAASLYIYGGYGMGWYRKAPGKERELVAVITSSVSTDYADSVKGSFTISRDNAKNTVYLQMKSLKPEDTAVYYSSADFLWYIYNIGTSLEFEYWGQGTQVTVSS
5. QVQLVESGGGLVQAGGSLRLICAASGRIFDFYAMGWYRQAPGKERELVAAITNGGRTNYADSVKGRFTISRDNAKNTVYLQMNSLKPEDTAVYYCAARLAYWYYYAWRGPYYYWGQGTQVTVSS
6. QVQLVESGGGLVQAGGSLRLSCAASGFIFYRYARGWYRQAPGKERELVAVISRGGNTYYADSVKGRFTISRDNAKNTVYLQMNSLKPEDTAVYYCNKRLRDSYRLYYYWGQGTQVTVSS

// result
high polyreactivity
low polyreactivity
high polyreactivity
low polyreactivity
high polyreactivity
high polyreactivity
